target.or.test.system: Serine/threonine-protein kinase mTOR (Homo sapiens)
experiment.summary: binders of mTOR FRB domain, biophysical, NMR (AID 1648)
measurement.context: NMR binding to FRB domain, chemical shift
Active and inactive are the calls of the source. How the calls were made is not given here.
Quick reference for Kd among some molecules

Some molecules with recorded Kd:
* CNc1nc(SC)nc(N2CCOCC2)n1 | > 4 mM (inactive)
* CN(C)c1ccc2c(=O)[nH][nH]c(=O)c2c1 | > 4 mM (inactive)
* Nc1ccc(NC(=O)c2ccco2)c(Cl)c1 | > 4 mM (inactive)

Which Kd value belongs to CC(C)n1c(-c2ccncc2)n[nH]c1=S ?
> 4 mM (inactive)

Now try OC1CCN(Cc2ccc[nH]2)CC1 .
> 4 mM (inactive)

Next entry: CC1(C)C2CC[C@]3(C)C(C(=O)C=C4[C@@H]5C[C@@](C)(C(=O)O)CC[C@]5(C)CC[C@]43C)[C@@]2(C)CC[C@@H]1O (stereo partly specified)
> 4 mM (inactive)

###

target.or.test.system: Serine/threonine-protein kinase mTOR (Homo sapiens) (UniProt P42345)
Sequence (P42345 2015-2114): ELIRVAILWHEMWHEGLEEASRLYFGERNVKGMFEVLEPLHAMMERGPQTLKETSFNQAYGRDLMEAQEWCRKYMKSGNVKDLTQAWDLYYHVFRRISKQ
experiment.summary: binders of mTOR FRB domain, biophysical, NMR (AID 1648)
measurement.context: NMR binding to FRB domain, chemical shift
Calls of active or inactive are those of the source. How the calls were made is not given here.
The following compounds are shown together with reported Kd values.

* CSc1nnc2[nH]c(=O)cc(N)n12 | > 4 mM (inactive)
* Cc1cccc(NC(=O)Nc2cc(C)on2)c1 | > 4 mM (inactive)
* C/C=C1\[C@H]2C=C(C)C[C@]1(N)c1ccc(=O)[nH]c1C2 | > 4 mM (inactive)

# get_value(readout= Kd, system= Serine/threonine-protein kinase mTOR (Homo sapiens) (UniProt P42345)) for CS(=O)(=O)N1CCC(C(=O)NC2CCCC2)CC1
> 4 mM (inactive)

###

# Kd per entry
target.or.test.system: Serine/threonine-protein kinase mTOR (Homo sapiens)
experiment.summary: binders of mTOR FRB domain, biophysical, NMR (AID 1648)
measurement.context: NMR binding to FRB domain, chemical shift
Activity calls are given as the source filed them. No rule for the calls is given here.

* O=C(OCc1c(F)cccc1Cl)c1cnccn1 | > 4 mM (inactive)

Data request, read-out Kd, for CC(=O)Oc1c2c(c3c(c1CC=C(C)C)O[C@]14C(=C[C@@H]5CC1C(C)(C)OC4(C/C=C(\C)C(=O)O)C5=O)C3=O)OC(C)(CCC=C(C)C)C=C2 (stereo partly specified)
> 4 mM (inactive)

Also, Cc1cc(NC(=O)c2ocnc2C)no1 please.
> 4 mM (inactive)

Repeat for the following molecule: COc1cc2nc(N3CCNCC3)nc(N)c2cc1OC
> 4 mM (inactive)

Same lookup for Cc1cc(C)n(-c2ccc(Cl)nn2)n1 , please.
> 4 mM (inactive)

Please answer likewise for O=C(O)c1ccc(-n2ccnc2)cc1
> 4 mM (inactive)

Same read-out for Cc1cc(C(=O)Nc2sc(C)c(C)c2C#N)no1 ?
> 4 mM (inactive)

###

We begin with a simple list: items and their reported Kd.
target.or.test.system: Serine/threonine-protein kinase mTOR (Homo sapiens) (UniProt P42345)
experiment.summary: binders of mTOR FRB domain, biophysical, NMR (AID 1648)
measurement.context: NMR binding to FRB domain, chemical shift
Active and inactive are the calls of the source. The rule behind the calls is not given here.

Use these answered entries as a reference point.
• Nc1nc(N)nc(N2C(=O)c3ccccc3C2=O)n1 = > 4 mM (inactive)
• Nc1ccc(OC(F)(F)F)cc1 = > 4 mM (inactive)
• Cc1cc(C(=O)NCc2ccccc2Br)no1 = > 4 mM (inactive)
• CNC(=O)n1ccc(C(=O)N2CCCCC2)n1 = > 4 mM (inactive)
• CC(=O)N1CC2(C)CN(C(C)=O)CC(C)(C1)C2 = > 4 mM (inactive)

Record request: Kd value, item CC1(C)C(=O)N(O)C(C)(C)C(=O)N1O
> 4 mM (inactive)

And COC1(C)CCC2OC2(C)CCC2C1CC2(C)C (configuration not stated) ?
> 4 mM (inactive)

What do you have for CC(=O)OC1CCC23C(=O)OC45CCC(C6=CC(=O)OC6)C4(C)CCC2C5CCC3(O)C1 (configuration not stated) ?
> 4 mM (inactive)

Please answer likewise for Cc1nc2c(=O)[nH]c3ccccc3c2o1
> 4 mM (inactive)

And the next one, Cc1sc2nc(C)n(NC(N)=O)c(=O)c2c1C ?
> 4 mM (inactive)

Sourced from PubChem BioAssay AID1648
